Source: ChEMBL document CHEMBL5608113

System: Colon cancer organoid
experimental-protocol: Targeting of F14 CAF-induced therapy resistance in O23 CRC organoid-stroma co-culture. Cell viability is reported with SN-38.
Type: functional, Homo sapiens
test-conditions: Homo sapiens, Concentration 10 uM; read-out: Cell Viability
Consider the following compounds; for each one, report its viability at 10 µM.
Answers are plain numbers, in %.

Request: What measured viability at 10 µM goes with C[C@@H](NC(=O)Nc1cc2[nH]ncc2c(CO)n1)c1ccccc1 ?
Result: 14.3

Look at each compound and report its viability at 10 µM.
1. Cc1cc(=O)n(C)c2cc(N3C(=O)CC[C@H](NS(=O)(=O)CC(C)C)[C@H]3c3ccc(Cl)cc3)ccc12
2. O=C(NC[C@H](O)CN1CCc2ccccc2C1)c1ccnc(NC2CCC2)c1
3. O=C1c2ccc(Nc3ccc(F)cc3F)cc2CCc2ccc(OC[C@H](O)CO)cc21 [Skepinone-L]
4. CCCCNNC(=O)c1ccc(Br)cc1

Result:
81.7
50.6
77.4
75
